Listed molecules paired with reported IC50
- test_system: Human M4 (Homo sapiens, UniProt P08173)
- Construct: expressed in transfected cells; host or cells: CHO-K1 (ATCC), stably co-expressing chimeric G protein Gqi5
- protocol: mAChR M4 cell-based functional assay (calcium flux, antagonist mode)
- settings: M4/Gqi5/CHO-K1 cells; concentration-dependent decrease of the EC80 acetylcholine response

| molecule | IC50 |
| --- | --- |
| Fc1ccc(Cl)c(-c2ccc(NCC3CC4(CCN(CC5CCCOC5)CC4)C3)nn2)c1 (stereo not drawn) | 2280 nM |
| Cc1nn(C)cc1-c1ccc(OC2CC3(CCN(CC4CCOCC4)CC3)C2)nn1 | 4430 nM |
| Cc1cccnc1CN1CCC2(CC1)CC(CNc1ccc(-c3cn(C)nc3C)nn1)C2 | 3940 nM |
| Cc1cccnc1CN1CCC2(CC1)CC(Oc1ccc(-c3cc(F)ccc3Cl)nn1)C2 | 900 nM |
| Fc1ccc(Cl)c(-c2ccc(OCC3CC4(CCN(CC5CCOCC5)CC4)C3)nn2)c1 | 1310 nM |
| Cc1nn(C)cc1-c1ccc(OC2CC3(CCN(CC4CCSCC4)CC3)C2)nn1 | 1170 nM |

----------
- test_system: Human M4 (Homo sapiens, UniProt P08173)
- Construct: expressed in transfected cells; host or cells: CHO-K1 (ATCC), stably co-expressing chimeric G protein Gqi5
- protocol: mAChR M4 cell-based functional assay (calcium flux, antagonist mode)
- settings: % ACh maximum at 30 μM; read-out: Emin
Listed molecules paired with reported remaining activity at 30 µM

| record_smiles | remaining activity at 30 µM (%) |
| --- | --- |
| Cc1cnn(C)c1-c1ccc(OC2CC3(CCN(CC4CCOCC4)CC3)C2)nn1 | 17.8 |
| Fc1ccc(Cl)c(-c2ccc(OCC3CC4(CCN(Cc5ccccn5)CC4)C3)nn2)c1 | 8.3 |
| Cc1cnn(C)c1-c1ccc(NC2CC3(CCN(CCC(C)(C)C)CC3)C2)nn1 | 3.29 |
| Fc1ccc(Cl)c(-c2ccc(NCC3CC4(CCN(Cc5ccc6c(c5)OCO6)CC4)C3)nn2)c1 | 4.6 |

----------
Listed compounds paired with reported remaining activity at 30 µM
- test_system: Human M4 (Homo sapiens)
- Construct: expressed in transfected cells; host or cells: CHO-K1 (ATCC), stably co-expressing chimeric G protein Gqi5
- Sequence (P08173 1-479): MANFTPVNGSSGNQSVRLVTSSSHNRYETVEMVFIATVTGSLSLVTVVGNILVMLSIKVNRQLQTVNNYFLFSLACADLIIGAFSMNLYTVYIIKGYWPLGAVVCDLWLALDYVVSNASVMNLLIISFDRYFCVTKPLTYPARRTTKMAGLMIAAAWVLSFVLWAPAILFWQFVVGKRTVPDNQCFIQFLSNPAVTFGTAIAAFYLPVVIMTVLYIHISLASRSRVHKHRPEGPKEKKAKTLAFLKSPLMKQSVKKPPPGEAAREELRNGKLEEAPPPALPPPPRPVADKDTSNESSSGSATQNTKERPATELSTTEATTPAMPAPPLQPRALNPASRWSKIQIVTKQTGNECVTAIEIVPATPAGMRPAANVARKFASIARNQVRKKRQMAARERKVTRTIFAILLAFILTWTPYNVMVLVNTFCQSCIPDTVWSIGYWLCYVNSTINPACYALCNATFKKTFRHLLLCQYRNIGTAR
- protocol: mAChR M4 cell-based functional assay (calcium flux, antagonist mode)
- settings: % ACh maximum at 30 μM; read-out: Emin

| compound | unit_info | remaining activity at 30 µM |
| --- | --- | --- |
| Cc1cnn(C)c1-c1ccc(NC2CC3(CCN(CC4CCOCC4)CC3)C2)nn1 | % | 23.1 |
| Cc1cnn(C)c1-c1ccc(OC2CC3(CCN(CCC(C)(C)C)CC3)C2)nn1 | % | 3.92 |
| Cc1cnn(C)c1-c1ccc(OC2CC3(CCN(Cc4ccccc4)CC3)C2)nn1 | % | 10.8 |
| Fc1ccc(Cl)c(-c2ccc(OC3CC4(CCN(Cc5ccccc5)CC4)C3)nn2)c1 | % | 3.34 |
| Cc1nn(C)cc1-c1ccc(NCC2CC3(CCN(CC4CCCOC4)CC3)C2)nn1 (stereo not drawn) | % | 37.6 |
| Fc1ccc(Cl)c(-c2ccc(NCC3CC4(CCN(Cc5ccccc5F)CC4)C3)nn2)c1 | % | 9.19 |
| Fc1ccc(Cl)c(-c2ccc(OC3CC4(CCN(CC5CCOCC5)CC4)C3)nn2)c1 | % | 3.47 |
| Fc1ccc(Cl)c(-c2ccc(OC3CC4(CCN(CC5CC6C=CC5C6)CC4)C3)nn2)c1 (stereo not drawn) | % | 3.07 |
| Cc1cnn(C)c1-c1ccc(NC2CC3(CCN(CC(C)C(C)(C)C)CC3)C2)nn1 (stereo not drawn) | % | 3.11 |
| Cc1nn(C)cc1-c1ccc(OC2CC3(CCN(CC(C)C(C)(C)C)CC3)C2)nn1 (stereo not drawn) | % | 3.1 |
| Fc1ccc(Cl)c(-c2ccc(NCC3CC4(CCN(CC5CC6C=CC5C6)CC4)C3)nn2)c1 (stereo not drawn) | % | 2.63 |
| Fc1ccc(Cl)c(-c2ccc(NCC3CC4(CCN(CC5CCCOC5)CC4)C3)nn2)c1 (stereo not drawn) | % | 5.29 |
| Cc1cnn(C)c1-c1ccc(NC2CC3(CCN(CC4CCSCC4)CC3)C2)nn1 | % | 3.95 |
| Cc1nn(C)cc1-c1ccc(NCC2CC3(CCN(CC4CCOCC4)CC3)C2)nn1 | % | 30.8 |
| COc1cccc(CN2CCC3(CC2)CC(CNc2ccc(-c4cc(F)ccc4Cl)nn2)C3)n1 | % | 4.48 |
| Fc1ccc(Cl)c(-c2ccc(OCC3CC4(CCN(CC5CCCOC5)CC4)C3)nn2)c1 (stereo not drawn) | % | 7.8 |
| Cc1cnn(C)c1-c1ccc(OC2CC3(CCN(CC(C)C(C)(C)C)CC3)C2)nn1 (stereo not drawn) | % | 3.87 |
| CC(C)(C)CCN1CCC2(CC1)CC(CNc1ccc(-c3cc(F)ccc3Cl)nn1)C2 | % | 2.42 |
| Cc1nn(C)cc1-c1ccc(OC2CC3(CCN(CCC(C)(C)C)CC3)C2)nn1 | % | 2.85 |
| Fc1ccc(Cl)c(-c2ccc(NCC3CC4(CCN(CC5CCCCC5)CC4)C3)nn2)c1 | % | 6.27 |
| Cc1nn(C)cc1-c1ccc(NC2CC3(CCN(CC(C)C(C)(C)C)CC3)C2)nn1 (stereo not drawn) | % | 4.05 |
| Cc1nn(C)cc1-c1ccc(NCC2CC3(CCN(Cc4ccc(F)cc4)CC3)C2)nn1 | % | 11.8 |
| Cc1cnn(C)c1-c1ccc(OC2CC3(CCN(CC4CCCCC4)CC3)C2)nn1 | % | 4.38 |
| Fc1ccc(Cl)c(-c2ccc(OC3CC4(CCN(CC5CCSCC5)CC4)C3)nn2)c1 | % | 3.22 |
| Cc1nn(C)cc1-c1ccc(NCC2CC3(CCN(CC4CC5C=CC4C5)CC3)C2)nn1 (stereo not drawn) | % | 5.41 |
| Cc1cnn(C)c1-c1ccc(NC2CC3(CCN(CC4CC5C=CC4C5)CC3)C2)nn1 (stereo not drawn) | % | 2.86 |
| Cc1cccnc1CN1CCC2(CC1)CC(Nc1ccc(-c3cn(C)nc3C)nn1)C2 | % | 9.14 |
| Fc1ccc(Cl)c(-c2ccc(NCC3CC4(CCN(Cc5ccccn5)CC4)C3)nn2)c1 | % | 5.52 |
| Cc1cccnc1CN1CCC2(CC1)CC(CNc1ccc(-c3cn(C)nc3C)nn1)C2 | % | 19.4 |
| Cc1nn(C)cc1-c1ccc(OC2CC3(CCN(CC4CCSCC4)CC3)C2)nn1 | % | 5.29 |
| CC(CN1CCC2(CC1)CC(Oc1ccc(-c3cc(F)ccc3Cl)nn1)C2)C(C)(C)C (stereo not drawn) | % | 2.73 |
| Fc1ccc(Cl)c(-c2ccc(OCC3CC4(CCN(CC5CCOCC5)CC4)C3)nn2)c1 | % | 6.61 |
| Cc1nn(C)cc1-c1ccc(NC2CC3(CCN(CC4CCSCC4)CC3)C2)nn1 | % | 4.58 |

----------
Listed compounds paired with reported pIC50
- test_system: Human M4 (Homo sapiens, UniProt P08173)
- protocol: mAChR M4 cell-based functional assay (calcium flux, antagonist mode)
- settings: M4/Gqi5/CHO-K1 cells; concentration-dependent decrease of the EC80 acetylcholine response
pIC50: −log10 of the molar value.

| compound | sign_qualifier | pIC50 |
| --- | --- | --- |
| Cc1nn(C)cc1-c1ccc(OC2CC3(CCN(CC4CCCCC4)CC3)C2)nn1 | = | 6.20 |
| Fc1ccc(Cl)c(-c2ccc(NCC3CC4(CCN(Cc5ccccn5)CC4)C3)nn2)c1 | = | 5.72 |
| Cc1nn(C)cc1-c1ccc(OC2CC3(CCN(Cc4ccccc4)CC3)C2)nn1 | = | 5.79 |
| Cc1nn(C)cc1-c1ccc(NC2CC3(CCN(CC4CC5C=CC4C5)CC3)C2)nn1 (centres unmarked) | = | 8.00 |
| Cc1nn(C)cc1-c1ccc(OC2CC3(CCN(CC(C)C(C)(C)C)CC3)C2)nn1 (centres unmarked) | = | 6.68 |
| CC(CN1CCC2(CC1)CC(Oc1ccc(-c3cc(F)ccc3Cl)nn1)C2)C(C)(C)C (centres unmarked) | = | 6.23 |
| Fc1ccc(Cl)c(-c2ccc(NCC3CC4(CCN(Cc5ccccc5F)CC4)C3)nn2)c1 | = | 6.11 |
| Cc1nn(C)cc1-c1ccc(NCC2CC3(CCN(CC4CC5C=CC4C5)CC3)C2)nn1 (centres unmarked) | = | 6.74 |
| Fc1ccc(Cl)c(-c2ccc(OC3CC4(CCN(CC5CCSCC5)CC4)C3)nn2)c1 | = | 6.28 |
| Cc1cnn(C)c1-c1ccc(OC2CC3(CCN(Cc4ccccc4)CC3)C2)nn1 | = | 5.46 |
| Fc1ccc(Cl)c(-c2ccc(NCC3CC4(CCN(CC5CC6C=CC5C6)CC4)C3)nn2)c1 (centres unmarked) | = | 6.62 |
| Cc1nn(C)cc1-c1ccc(NCC2CC3(CCN(CC4CCOCC4)CC3)C2)nn1 | < | 5.00 |
| Fc1ccc(Cl)c(-c2ccc(OCC3CC4(CCN(Cc5ccccc5)CC4)C3)nn2)c1 | = | 5.58 |
| CC(C)(C)CCN1CCC2(CC1)CC(Oc1ccc(-c3cc(F)ccc3Cl)nn1)C2 | = | 6.48 |
| Cc1cnn(C)c1-c1ccc(NC2CC3(CCN(CC4CCOCC4)CC3)C2)nn1 | < | 5.00 |
| Fc1ccc(Cl)c(-c2ccc(OC3CC4(CCN(CC5CC6C=CC5C6)CC4)C3)nn2)c1 (centres unmarked) | = | 6.74 |
| COc1cccc(CN2CCC3(CC2)CC(CNc2ccc(-c4cc(F)ccc4Cl)nn2)C3)n1 | = | 5.76 |
